Biological target: Peroxisome proliferator-activated receptor gamma (Homo sapiens)
Sequence (P37231 whole entry): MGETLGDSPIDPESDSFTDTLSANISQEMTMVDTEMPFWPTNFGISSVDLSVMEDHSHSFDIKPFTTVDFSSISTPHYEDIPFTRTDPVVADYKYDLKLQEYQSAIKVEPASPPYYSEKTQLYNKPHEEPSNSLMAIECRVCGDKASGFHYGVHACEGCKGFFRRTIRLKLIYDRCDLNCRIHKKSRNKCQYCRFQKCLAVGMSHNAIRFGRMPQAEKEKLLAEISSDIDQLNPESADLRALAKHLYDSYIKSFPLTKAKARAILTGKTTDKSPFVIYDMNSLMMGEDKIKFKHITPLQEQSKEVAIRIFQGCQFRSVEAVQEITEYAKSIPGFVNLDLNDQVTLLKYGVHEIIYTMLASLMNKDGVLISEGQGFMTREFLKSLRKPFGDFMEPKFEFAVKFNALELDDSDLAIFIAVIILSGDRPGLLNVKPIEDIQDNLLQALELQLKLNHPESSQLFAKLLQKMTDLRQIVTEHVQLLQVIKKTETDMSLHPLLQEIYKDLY
Test: The compound was tested in vitro for inhibiting the 50% binding of Peroxisome proliferator activated receptor gamma
Please go through the items and note down their Ki.
Express it in µM; write the number only.

Lookup result for CN(CCOc1ccc(CC(Nc2ccccc2C(=O)c2ccc(-c3ccccc3)cc2)C(=O)O)cc1)c1nc2ccccc2o1 (stereo not drawn) ; measured Ki: 0.049

For reference, reported Ki for CN(CCOc1ccc(CC(Nc2ccccc2C(=O)c2cccc(OCc3ccccc3)c2)C(=O)O)cc1)c1nc2ccccc2o1 (stereo not drawn) stands at 0.0537

Ki in this record for CN(CCOc1ccc(CC(Nc2ccccc2C(=O)c2cccc3ccccc23)C(=O)O)cc1)c1nc2ccccc2o1 (stereo not drawn) : 0.00324
